System: CN0375-F725-PDC multi-cell spheroids, viability
Experiment: Anticancer human tumor CN0375-F725-PDC patient-derived colon carcinoma cell line growth inhibition [TAK]
Details: curve of first compound; second compound 0.949 µM
Experimental: Combinatorial screen of targeted agents with TAK-243 and ipatasertib in multi-cell type tumor spheroids […] Compounds. […] If the clinical Cmax for an agent had not been determined, the highest concentration tested was 10 microM. NCI60 Cell Culture. […] The optimal seeding densities for each of the cell lines at each time point assessed were determined prior to performing the concentration response studies. […]
pIC50: −log10 of the molar value.
Measured pIC50, listed per entry.

| Compound | Assay target | Sign | pIC50 |
| --- | --- | --- | --- |
| CC(C)(C)c1nc(-c2cccc(NS(=O)(=O)c3c(F)cccc3F)c2F)c(-c2ccnc(N)n2)s1 + CC(C)NCC(C(=O)N1CCN(c2ncnc3c2C(C)CC3O)CC1)c1ccc(Cl)cc1 | CN0375-F725-PDC multi-cell spheroids, viability | < | 5.00 |
| CC(C)CC(NC(=O)CNC(=O)c1cc(Cl)ccc1Cl)B1OC(=O)CC(CC(=O)O)(C(=O)O)O1 (stereo not given) + CC(C)NCC(C(=O)N1CCN(c2ncnc3c2C(C)CC3O)CC1)c1ccc(Cl)cc1 | CN0375-F725-PDC multi-cell spheroids, viability | = | 7.36 |
| CC(C)CC(NC(=O)C(Cc1ccccc1)NC(=O)c1cnccn1)B(O)O (stereo not given) + CC(C)NCC(C(=O)N1CCN(c2ncnc3c2C(C)CC3O)CC1)c1ccc(Cl)cc1 | CN0375-F725-PDC multi-cell spheroids, viability | = | 8.10 |
| COc1c(OCCCN2CCOCC2)ccc2c3n(c(=NC(=O)c4cnc(N)nc4)nc12)CCN3 + CC(C)NCC(C(=O)N1CCN(c2ncnc3c2C(C)CC3O)CC1)c1ccc(Cl)cc1 | CN0375-F725-PDC multi-cell spheroids, viability | = | 6.68 |
| COC1CC2CCC(C)C(O)(O2)C(=O)C(=O)N2CCCCC2C(=O)OC(C(C)CC2CCC(OCCO)C(OC)C2)CC(=O)C(C)C=C(C)C(O)C(OC)C(=O)C(C)CC(C)C=CC=CC=C1C (stereo not given) + CC(C)NCC(C(=O)N1CCN(c2ncnc3c2C(C)CC3O)CC1)c1ccc(Cl)cc1 | CN0375-F725-PDC multi-cell spheroids, viability | < | 7.00 |

---

Measured IC50, listed per entry.
System: CN0375-F725-PDC multi-cell spheroids, viability
Test: Anticancer human tumor CN0375-F725-PDC cell line growth inhibition [TAK];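 note: spheroids exposed to drugs for seven days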
Details: curve of first compound; second compound 3 µM
Procedure: Combinatorial screen of targeted agents with TAK-243 and ipatasertib in multi-cell type tumor spheroids […] Compounds. […] If the clinical Cmax for an agent had not been determined, the highest concentration tested was 10 microM. NCI60 Cell Culture. […] The optimal seeding densities for each of the cell lines at each time point assessed were determined prior to performing the concentration response studies. […]
Recorded metric: IC50

| Molecule | Experimental value |
| --- | --- |
| CCCS(=O)(=O)Nc1ccc(F)c(C(=O)c2c[nH]c3ncc(-c4ccc(Cl)cc4)cc23)c1F + CC(C)NCC(C(=O)N1CCN(c2ncnc3c2C(C)CC3O)CC1)c1ccc(Cl)cc1 | > 100 µM |
| CC(C)n1nc(-c2ccc3oc(N)nc3c2)c2c(N)ncnc21 + CC(C)NCC(C(=O)N1CCN(c2ncnc3c2C(C)CC3O)CC1)c1ccc(Cl)cc1 | > 0.1 µM |
| COC1CC2CCC(C)C(O)(O2)C(=O)C(=O)N2CCCCC2C(=O)OC(C(C)CC2CCC(OCCO)C(OC)C2)CC(=O)C(C)C=C(C)C(O)C(OC)C(=O)C(C)CC(C)C=CC=CC=C1C (stereo not drawn) + CC(C)NCC(C(=O)N1CCN(c2ncnc3c2C(C)CC3O)CC1)c1ccc(Cl)cc1 | > 0.1 µM |
